Assay: Polymorph screen, approximate solubility in solvents (UHPLC)
Format: physicochemical
Settings: organic solvent or mixture, thermodynamic from solid; solvent Dimethoxyethane
VALUE KIND: solubility (µg/mL)

# COMPOUND, VALUE KIND, QUANTITATIVE READOUT
rows = [
    ("O=c1c2nc(Br)n(C3OC4COP(O)(=S)OC4C3O)c2nc2[nH]c(-c3ccccc3)cn12 (stereo not shown)", "solubility", 15),
]

----------
Test: Dynamic vapor sorption (DVS), water sorption as Δm
Format: physicochemical
Settings: 95 % RH, desorption cycle 2 (D2), 25 °C
Here, each record is paired with measured Water sorption Δm data.

# COMPOUND, ENDPOINT UNIT, Water sorption Δm
measured = [
    ("O=c1c2nc(Br)n([C@@H]3O[C@@H]4COP(=O)([S-])O[C@H]4[C@H]3O)c2nc2[nH]c(-c3ccccc3)cn12.[Na+] (stereo partly shown)", "%", 15.1),
    ("O=c1c2nc(Br)n([C@@H]3O[C@@H]4COP(=O)([S-])O[C@H]4[C@H]3O)c2nc2[nH]c(-c3ccccc3)cn12.O=c1c2nc(Br)n([C@@H]3O[C@@H]4COP(=O)([S-])O[C@H]4[C@H]3O)c2nc2[nH]c(-c3ccccc3)cn12.[Ca+2] (stereo partly shown)", "%", 22.0),
    ("O=c1c2nc(Br)n([C@@H]3O[C@@H]4CO[P@@](O)(=S)O[C@H]4[C@H]3O)c2nc2[nH]c(-c3ccccc3)cn12.O=c1c2nc(Br)n([C@@H]3O[C@@H]4CO[P@@](O)(=S)O[C@H]4[C@H]3O)c2nc2[nH]c(-c3ccccc3)cn12.c1ccc(CNCCNCc2ccccc2)cc1", "%", 4.7),
    ("O=c1c2nc(Br)n([C@@H]3O[C@@H]4COP(=O)(S)O[C@H]4[C@H]3O)c2nc2[nH]c(-c3ccccc3)cn12 (stereo partly shown)", "%", 9.3),
    ("O=c1c2nc(Br)n(C3OC4COP(O)(=S)OC4C3O)c2nc2[nH]c(-c3ccccc3)cn12 (stereo not shown)", "%", 5.2),
    ("NC(CO)(CO)CO.O=c1c2nc(Br)n([C@@H]3O[C@@H]4CO[P@@](O)(=S)O[C@H]4[C@H]3O)c2nc2[nH]c(-c3ccccc3)cn12", "%", 32.4),
    ("O=c1c2nc(Br)n([C@@H]3O[C@@H]4CO[P@@](O)(=S)O[C@H]4[C@H]3O)c2nc2[nH]c(-c3ccccc3)cn12.c1ccc(CCNCc2ccccc2)cc1", "%", 7.7),
]

----------
Assay: Polymorph screen, approximate solubility in solvents (UHPLC)
Format: physicochemical
Details: aqueous with cosolvent or surfactant or cyclodextrin, thermodynamic from solid; solvent THF+H2O 1 : 1 v/v; solution
VALUE KIND: solubility

# MOLECULE, VALUE KIND, RESULT
data = [
    ("O=c1c2nc(Br)n(C3OC4COP(O)(=S)OC4C3O)c2nc2[nH]c(-c3ccccc3)cn12 (stereo not shown)", "solubility", "> 40 mg/mL"),
]

----------
Assay: Polymorph screen, approximate solubility in solvents (UHPLC)
Format: physicochemical
Conditions: aqueous with cosolvent or surfactant or cyclodextrin, thermodynamic from solid; solvent MeOH+H2O 1 : 1 v/v; solution

# MOLECULE, solubility
rows = [
    ("O=c1c2nc(Br)n(C3OC4COP(O)(=S)OC4C3O)c2nc2[nH]c(-c3ccccc3)cn12 (stereo not shown) [cGMPSA‐TEA]", "> 40 mg/mL"),
]
